tested.on: T1, soluble human recombinant CD4 expressed in baculovirus (human, UniProt P01730 26-396, limits assumed)
T1 construct: Coated on plates for the ELISA and covalently immobilised on the sensor for BIAcore; Only called soluble; also called soluble CD4; CD4 expressed in the baculovirus
assay.summary: SPR (BIAcore), CD4 immobilised

>  <binder>
mutant Fab H35-H of the 13B8.2 antibody (Fab, V domains shown, Chimeric Fab with human CH1-γ1 and Cκ; baculovirus/Sf9) VH: QVQLKQSGPGLVQPSQSLSITCTVSGFSLTTFGVAWVRQSPGKGLEWLGVIWRSGITDYNVPFMSRLSITKDNSKSQVFFKLNSLQPDDTAIYYCAKNDPGTGFAYWGQGTLVTVSA VL: DIQMTQSPASLSASVGETVTFTCRASENIYSYLAWYQQKQGKSPQLLVHDAKTLAEGVPSRFSGGGSGTQFSLKINTLQPEDFGTYYCQHHYGNPPTFGGGTKLEIK

>  <koff [s⁻¹]>
0.00189

$$$$
>  <binder>
mutant Fab R38-H of the 13B8.2 antibody (Fab, V domains shown, Chimeric Fab with human CH1-γ1 and Cκ; baculovirus/Sf9) VH: QVQLKQSGPGLVQPSQSLSITCTVSGFSLTTFGVHWVAQSPGKGLEWLGVIWRSGITDYNVPFMSRLSITKDNSKSQVFFKLNSLQPDDTAIYYCAKNDPGTGFAYWGQGTLVTVSA VL: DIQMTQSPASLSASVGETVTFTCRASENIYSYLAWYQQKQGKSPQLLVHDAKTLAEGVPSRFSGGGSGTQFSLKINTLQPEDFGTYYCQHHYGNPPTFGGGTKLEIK

>  <koff [s⁻¹]>
0.00014

$$$$
>  <binder>
mutant Fab W103-H of the 13B8.2 antibody (Fab, V domains shown, Chimeric Fab with human CH1-γ1 and Cκ; baculovirus/Sf9) VH: QVQLKQSGPGLVQPSQSLSITCTVSGFSLTTFGVHWVRQSPGKGLEWLGVIWRSGITDYNVPFMSRLSITKDNSKSQVFFKLNSLQPDDTAIYYCAKNDPGTGFAYAGQGTLVTVSA VL: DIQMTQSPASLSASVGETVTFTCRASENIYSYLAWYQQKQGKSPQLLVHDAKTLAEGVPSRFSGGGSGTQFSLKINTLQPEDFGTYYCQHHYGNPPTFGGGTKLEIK

>  <koff [s⁻¹]>
0.00112

$$$$
